tested on: PSN1; assay: SRB colorimetric assay of cell growth and viability, PSN1; format: cell-based; details: Homo sapiens, PSN1; 72 hours treatment; SRB; NCI algorithm
Parameter: log10 of GI50. Scope: all listed entries.
Units before log transform: nM; reported quantity: GI50; transform: log10.

COc1c(C)cc2c(c1O)[C@H]1N[C@@H](C2)[C@H](C#N)N2[C@H]1[C@@H]1SC[C@]3(NCCc4c3oc3ccccc43)C(=O)OC[C@H]2c2c3c(c(C)c(OC(C)=O)c21)OCO3 : 0.99
COc1ccc2[nH]c3c(c2c1)C[C@H](CO)N[C@]31CS[C@@H]2c3c(OC(C)=O)c(C)c4c(c3[C@H](COC1=O)N1[C@@H]2[C@@H]2N[C@@H](Cc3cc(C)c(OC)c(O)c32)[C@@H]1O)OCO4 : 0.33
COc1ccc2[nH]c3c(c2c1)CCN[C@]31CS[C@@H]2c3c(OC(C)=O)c(C)c4c(c3[C@H](COC1=O)N1[C@@H]2[C@@H]2N[C@@H](Cc3cc(C)c(OC)c(O)c32)[C@@H]1O)OCO4 : 0.09
COc1c(C)cc2c(c1O)[C@H]1N[C@@H](C2)[C@H](O)N2[C@H]1[C@@H]1SC[C@]3(NCCc4c3[nH]c3ccccc43)C(=O)OC[C@H]2c2c3c(c(C)c(OC(C)=O)c21)OCO3 : 0.17
COc1c(C)cc2c(c1O)[C@H]1N[C@@H](C2)[C@H](O)N2[C@H]1[C@@H]1SC[C@]3(NCCc4c3oc3ccccc43)C(=O)OC[C@H]2c2c3c(c(C)c(OC(C)=O)c21)OCO3 : 1.00

Q: Give log10 of GI50 only, for COc1ccc2[nH]c3c(c2c1)C[C@H](CO)N[C@]31CS[C@@H]2c3c(OC(C)=O)c(C)c4c(c3[C@H](COC1=O)N1[C@@H]2[C@@H]2N[C@@H](Cc3cc(C)c(OC)c(O)c32)[C@@H]1C#N)OCO4 , using PSN1 data.
Ans: -0.12

Q: Report log10 of GI50 under test system PSN1 for COc1ccc2[nH]c3c(c2c1)CCN[C@]31CS[C@@H]2c3c(OC(C)=O)c(C)c4c(c3[C@H](COC1=O)N1[C@@H]2[C@@H]2N[C@@H](Cc3cc(C)c(OC)c(O)c32)[C@@H]1C#N)OCO4 .
Ans: 0.31

====

We begin with a simple list: items and their reported GI50.
test system: A549
Report only the number, with the unit nM understood.

COc1c(C)cc2c(c1O)[C@H]1N[C@@H](C2)[C@H](O)N2[C@H]1[C@@H]1SC[C@]3(NCCc4c3oc3ccccc43)C(=O)OC[C@H]2c2c3c(c(C)c(OC(C)=O)c21)OCO3 [Compound 15] : 12.1
COc1ccc2[nH]c3c(c2c1)CCN[C@]31CS[C@@H]2c3c(OC(C)=O)c(C)c4c(c3[C@H](COC1=O)N1[C@@H]2[C@@H]2N[C@@H](Cc3cc(C)c(OC)c(O)c32)[C@@H]1C#N)OCO4 [Compound 2] : 12.8
COc1ccc2[nH]c3c(c2c1)CCN[C@]31CS[C@@H]2c3c(OC(C)=O)c(C)c4c(c3[C@H](COC1=O)N1[C@@H]2[C@@H]2N[C@@H](Cc3cc(C)c(OC)c(O)c32)[C@@H]1O)OCO4 [Compound 1] : 1.82
COc1c(C)cc2c(c1O)[C@H]1N[C@@H](C2)[C@H](C#N)N2[C@H]1[C@@H]1SC[C@]3(NCCc4c3oc3ccccc43)C(=O)OC[C@H]2c2c3c(c(C)c(OC(C)=O)c21)OCO3 [Compound 14] : 8.79

Q: Answer briefly: GI50 recorded on A549 for COc1c(C)cc2c(c1O)[C@H]1N[C@@H](C2)[C@H](O)N2[C@H]1[C@@H]1SC[C@]3(NCCc4c3[nH]c3ccccc43)C(=O)OC[C@H]2c2c3c(c(C)c(OC(C)=O)c21)OCO3 [ET-722, Ecteinascidin 722]
Ans: 1.35

Q: Report GI50 under test system A549 for COc1ccc2[nH]c3c(c2c1)C[C@H](CO)N[C@]31CS[C@@H]2c3c(OC(C)=O)c(C)c4c(c3[C@H](COC1=O)N1[C@@H]2[C@@H]2N[C@@H](Cc3cc(C)c(OC)c(O)c32)[C@@H]1C#N)OCO4 [Compound 10-R] .
Ans: 4.32

Q: Specify GI50 for COc1ccc2[nH]c3c(c2c1)C[C@H](CO)N[C@]31CS[C@@H]2c3c(OC(C)=O)c(C)c4c(c3[C@H](COC1=O)N1[C@@H]2[C@@H]2N[C@@H](Cc3cc(C)c(OC)c(O)c32)[C@@H]1O)OCO4 [Compound 11-R] , system A549.
Ans: 15
